tested on: Det551; test: Crystal violet cell proliferation inhibition assay; assay type: cell-based, human; details: crystal violet procedure, Table 7; normal cells; read-out: Cytotoxic Activity, Det551
measuredMetric: IC50

Prompt: Tell me IC50 of O=c1[nH]c(=O)n([C@H]2C[C@H](O)[C@@H](CO)O2)cc1/C=C/C=C/Br (single isomer, unassigned; isomer 2) [NB1024 Isomer 2] when tested on Det551.
Response: > 300 µM

* * *

tested on: HT1080 #12; assay: Crystal violet cell proliferation inhibition assay; type: cell-based; details: crystal violet procedure, Table 7; high TS; read-out: Cytotoxic Activity, TS HT1080 #12
measuredMetric: pIC50
pIC50 is a log-scale quantity: -log10 of the concentration expressed in molar.

Prompt: Give the measured pIC50 for O=c1[nH]c(=O)n([C@H]2C[C@H](O)[C@@H](CO)O2)cc1/C=C/C=C\Br (single isomer, unassigned; isomer 1) [NB1024 Isomer 1]
Response: 5.00
